- Tested on: NCI-H460 lung
- procedureSummary: NCI-60 one-dose screen, 48 h (100 = growth as untreated, 0 = no growth, -100 = all killed)
- experimentalContext: 10 µM unless noted
About 83,000 compounds went through this panel and 20% of them were active in at least one assay; those are over-represented in the sample as a whole. Active and inactive are the calls of the source. Rule for the calls: active = growth percent below 10; inactive = the rest.
So I've got a bunch of molecules here, and I need their growth values.

Give NCI-H460 lung growth for the following molecule: Cc1nc2cc(Nc3nc(Cl)nc(Nc4ccc(F)cc4)n3)ccc2n1Cc1ccccc1 88% (inactive)

Give NCI-H460 lung growth for the following molecule: CCCCNNC(=O)c1ccc(Br)cc1 50.1% (inactive)

Give NCI-H460 lung growth for the following molecule: CCCCOC(=O)C1OC(Oc2ccc3c(C)cc(=O)oc3c2)[C@@H](OC(C)=O)C(OC(C)=O)C1OC(C)=O (some centres undefined) 105% (inactive)

Give NCI-H460 lung growth for the following molecule: OB(O)c1ccccc1 110% (inactive)

----------
- Test system: OVCAR-8 ovarian
- procedureSummary: NCI-60 one-dose screen, 48 h (100 = growth as untreated, 0 = no growth, -100 = all killed)
- experimentalContext: 10 µM unless noted
- Method: Growth inhibition of the OVCAR-8 human tumor cell line is measured as a screen for anti-cancer activity. Cells are grown in 96 well plates and exposed to the test compound for 48 hours. Compounds are tested at a single concentration, which is 10^-5 M for most compounds. The reported endpoint is percent growth (GI% or GIPRCNT), where numbers from 0 - 100% represent growth inhibition, and numbers from -100% - 0 represent cell death. For example, a value of 40 represents 60% growth inhibition. […]
About 83,000 compounds went through this panel and 20% of them were active in at least one assay; those are over-represented in the sample as a whole.
Each entry gets N if its growth stays under 80%, and Y if its growth is 80% or above.

Can COc1cc(/C=C2\C(=O)N(c3c(Cl)cccc3Cl)c3ccccc32)cc(OC)c1O be said to have growth at or above 80%? N

Can NS(=O)(=O)c1cc(Br)c2c(c1)S(=O)(=O)NCN2 be said to have growth at or above 80%? Y

Can COC(=O)c1c2c(c(C)[n+]([O-])c1C)C(=O)C=C(NCc1cccc(Cl)c1)C2=O be said to have growth at or above 80%? N

Can N#Cc1c(-c2cccc(F)c2)cc(-c2ccc(Br)s2)[nH]c1=O be said to have growth at or above 80%? Y

Can Nc1nc2c(s1)CCc1c-2c(Br)n(Cc2ccccc2)c1Br be said to have growth at or above 80%? N

Can COc1ccc(-c2csc3c2-n2cccc2C3=O)cc1O be said to have growth at or above 80%? N

Can O=C(Nc1ccccc1O)c1ccc(NS(=O)(=O)c2cccc3cccnc23)cc1 be said to have growth at or above 80%? N

Can NC(=O)c1nc2c([nH]c1=O)CCCC2 be said to have growth at or above 80%? Y

Can CCCCCCCC/C=C\CCCCCCCCOc1cccc(CC(=O)NCC[N+](C)(C)C)c1 be said to have growth at or above 80%? Y

Can COc1ccc(-n2ncc3c2ccc2cc(S(=O)(=O)c4ccccc4)c(=O)n(C)c23)cc1 be said to have growth at or above 80%? N

Can c1ccc2cc(-c3n(Cc4ccc5ccccc5n4)c4ccccc4[n+]3Cc3ccc4ccccc4n3)ccc2c1 be said to have growth at or above 80%? N

Can CCN(C(=O)c1ccc2c3c(cccc13)C=C2)c1ccccc1 be said to have growth at or above 80%? Y

----------
- Test system: BT-549 breast
- procedureSummary: NCI-60 one-dose screen, 48 h (100 = growth as untreated, 0 = no growth, -100 = all killed)
- experimentalContext: 10 µM unless noted
The panel holds about 83,000 compounds, 20% with a hit somewhere; the sample as a whole holds those more often.
So I've got a bunch of compounds here, and I need their growth values.
Note: unit % is implicit; provide only the numeric part.

Tell me measured growth for FC(F)(F)c1cc(CNc2nc(Cl)ncc2Br)cc(C(F)(F)F)c1 please. 90

Tell me measured growth for CCOC(=O)c1c(Cl)c2c(n1Cc1cc(OC)cc(OC)c1)-c1oncc1CCC2 please. 69.9

Tell me measured growth for O=C1C(N2CCOCC2)=Cc2cccc3cccc1c23 please. 109

Tell me measured growth for O=C1NC(=O)C2(CCCC2C(=O)O)N1 (stereo not given) please. 102

Tell me measured growth for CCCCCCCCCCCCSC1=CC(=O)C=CC1=O please. 16.5

----------
So I've got a bunch of compounds here, and I need their growth values.
- Test system: SN12C renal
- procedureSummary: NCI-60 one-dose screen, 48 h (100 = growth as untreated, 0 = no growth, -100 = all killed)
- experimentalContext: 10 µM unless noted
This is part of a sample that, as a whole, favours compounds with a hit. Of some 83,000 tested, about 20% had one in any assay. The source made the active and inactive calls. Rule for the calls: active = growth percent below 10; inactive = the rest.

Tell me measured growth for O=C1NC(=O)C2(CCCC2C(=O)O)N1 (stereo not drawn) please. 99.6% (inactive)

Tell me measured growth for COc1ccc(-c2nc3sccn3c2/C=C/C(=O)c2cc(OC)c(OC)c(OC)c2)cc1OC please. 40.3% (inactive)

Tell me measured growth for COc1ccc(/C=C(\C#N)c2ccc(OC)cc2)cc1 please. 67.5% (inactive)

----------
- Test system: SW-620 colon
- procedureSummary: NCI-60 one-dose screen, 48 h
- experimentalContext: 10 µM unless noted
Compounds without any hit were thinned out: in the full panel of roughly 83,000, 20% have a hit. Activity calls are given as the source filed them. Rule for the calls: active = growth percent below 10; inactive = the rest.
Could you please pick one outcome from this set? active, inactive

Kindly provide the recorded test outcome for the following compound: CN(C)c1ccc(/C=C(\C#N)c2cc3ccccc3n2C)cc1 inactive

Kindly provide the recorded test outcome for the following compound: CSc1ccc(OC(C)=O)cc1C inactive

Kindly provide the recorded test outcome for the following compound: O=C1C(Cl)=C(NCCCN2CCOCC2)C(=O)c2ccccc21 inactive

Kindly provide the recorded test outcome for the following compound: Cc1oc2c(c1C(=O)N1CC[C@@H](N)C1)C(=O)c1c(c(O)c3ccccc3c1O)C2=O active

Kindly provide the recorded test outcome for the following compound: COc1ccc(Sc2ccc3[nH]c(=O)nc(N)c3c2)cc1 inactive

Kindly provide the recorded test outcome for the following compound: COc1ccc(C2=NOC(CC(=O)N(CCO)CCO)C2)cc1OC1CCCC1 (configuration not stated) inactive

Kindly provide the recorded test outcome for the following compound: COc1cc(CNCCCN2C(=O)c3ccc4c5c(ccc(c35)C2=O)C(=O)N(CCCNCc2cc(OC)c(OC)c(OC)c2)C4=O)cc(OC)c1OC active

Kindly provide the recorded test outcome for the following compound: FC(F)(F)c1cc(CNc2nc(Cl)ncc2Br)cc(C(F)(F)F)c1 inactive

Kindly provide the recorded test outcome for the following compound: Cc1ccc(N=c2nc3sc4c(C)ccc(C)c4n3c(N)c2C#N)cc1 inactive

Kindly provide the recorded test outcome for the following compound: COc1cccc(C2C3=C(COC3=O)N(CCO)c3cc4c(cc32)CCC4)c1 (configuration not stated) inactive

Kindly provide the recorded test outcome for the following compound: COc1ccc(C2OCC(C)(C)CO2)cc1OC inactive

Kindly provide the recorded test outcome for the following compound: CCN(c1ccc(C(=O)N2CCN(c3ccccc3)CC2)cc1)S(C)(=O)=O inactive

Kindly provide the recorded test outcome for the following compound: COc1ccc(NC(=O)COc2ccccc2)c(C(N)=O)c1 inactive

Kindly provide the recorded test outcome for the following compound: COc1cc(/C=C/c2cc(/C=C/c3ccc(O)c(OC)c3)n(-c3ccccc3)n2)ccc1O active

Kindly provide the recorded test outcome for the following compound: COc1ccc(-c2c(-c3cc4c(c(OC)c3OC)OCO4)noc2N)cc1 inactive

Kindly provide the recorded test outcome for the following compound: COc1ccc(/C=N/OCC(O)CNCc2ccccc2)cc1OC1CCCC1 (configuration not stated) inactive

Kindly provide the recorded test outcome for the following compound: Cc1cc(NS(=O)(=O)c2ccc(NC(=O)COc3ccc(-c4cc5ccccc5[nH]4)cc3)cc2)no1 inactive

Kindly provide the recorded test outcome for the following compound: O=c1oc2ccccc2cc1-c1csc(N=Nc2c(O)[nH]c3ccc(Br)cc23)n1 inactive

Kindly provide the recorded test outcome for the following compound: COc1cccc(OC)c1OC(=O)c1ccccc1 inactive

Kindly provide the recorded test outcome for the following compound: COc1ccc2nc(-n3nc(C)cc3C)c(-n3nc(C)cc3C)nc2c1 inactive

Kindly provide the recorded test outcome for the following compound: O=c1[nH]c(-c2ccncc2)nc2sc3c(c12)CCCCCC3 inactive

Kindly provide the recorded test outcome for the following compound: CCOC(=O)n1cc(C2=C(c3cn(C)c4ccccc34)COC2=O)c2ccccc21 inactive

Kindly provide the recorded test outcome for the following compound: Cn1cc(C(=O)NCCC(=N)N)cc1NC(=O)CN=C(N)N inactive

Kindly provide the recorded test outcome for the following compound: Cc1c(C(=O)Nc2nc(-c3ccccc3)cs2)nnn1-c1cccc2ccccc12 inactive

Kindly provide the recorded test outcome for the following compound: Clc1ccc2c(N3CCN(c4ccnc(NC5CCCCC5)n4)CC3)ccnc2c1 inactive

Kindly provide the recorded test outcome for the following compound: CC1(C)CC(=O)C2=C(C1)Nc1cc3c(cc1C2c1ccc(F)cc1)OCO3 (configuration not stated) inactive

Kindly provide the recorded test outcome for the following compound: COC(=O)[C@@H]1CCCN1C(=O)[C@@H]1CCCN1C(=O)[C@@H](Cc1c[nH]c2ccccc12)NC(=S)Nc1cc(C(F)(F)F)cc(C(F)(F)F)c1 inactive
